# Dmax per entry
- Target Under Test: KRAS-G12D (Homo sapiens, UniProt P01116, G12D)
- Construct: endogenous in cells; host or cells: A-427 (ATCC), AGS, AsPc-1, Panc 04.03
- Sequence (P01116 1-188 isoform P01116-2 G12D): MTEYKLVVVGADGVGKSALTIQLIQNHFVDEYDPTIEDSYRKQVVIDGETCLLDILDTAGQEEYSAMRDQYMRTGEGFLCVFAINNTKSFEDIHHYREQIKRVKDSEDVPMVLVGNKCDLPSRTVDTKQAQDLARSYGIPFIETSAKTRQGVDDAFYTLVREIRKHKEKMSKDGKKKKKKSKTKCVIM
- Assay Details: KRAS-G12D degradation assay (Western Blot), Panc 04.03 cells
- Assay type: cell-based
- Condition Summary: 24 h

Compound | Target Under Test | Uom | Dmax
C#Cc1cccc2cc(O)cc(-c3ncc4c(N5CC6CCC(C5)N6)nc(OCC5(CN6CCN(CC7CCC8(CC7)CCN(C(=O)c7ccc(Cl)c(N9CCC(=O)NC9=O)c7)CC8)CC6)CC5)nc4c3F)c12 [Example 57] | KRAS-G12D (Homo sapiens, UniProt P01116, G12D) | % | 97.3
C#Cc1cccc2cc(O)cc(-c3ccc4c(N5CC6CCC(C5)N6)nc(OCC5(CN6CCN(CC7CCC8(CC7)CCN(C(=O)c7ccc(Cl)c(N9CCC(=O)NC9=O)c7)CC8)CC6)CC5)nc4c3F)c12 [Example 78] | KRAS-G12D (Homo sapiens, UniProt P01116, G12D) | % | 100
C#Cc1cccc2cc(O)cc(-c3ncc4c(N5CC6CCC(C5)N6)nc(OCC5(CN6CCN(CC7CCC8(CC7)CCN(C(=O)c7ccc(C)c(N9CCC(=O)NC9=O)c7)CC8)CC6)CC5)nc4c3F)c12 [Example 55] | KRAS-G12D (Homo sapiens, UniProt P01116, G12D) | % | 98.6

###

- Target Under Test: KRAS-G12D (Homo sapiens, UniProt P01116, G12D)
- Construct: endogenous in cells; host or cells: A-427 (ATCC), AGS, AsPc-1, Panc 04.03
- Assay Details: KRAS-G12D degradation assay (Western Blot), AsPc-1 cells
- Format: cell-based
- Condition Summary: ASPC1, 24 h

Compound | Dmax [%]
CCc1c(F)ccc2cc(O)cc(-c3ncc4c(N5CC6CCC(C5)N6)nc(OCC5(CN6CCN(CC7CCC8(CC7)CCN(C(=O)c7ccc(OC)c(N9CCC(=O)NC9=O)c7)CC8)CC6)CC5)nc4c3F)c12 | 99.3
C#Cc1cccc2cc(O)cc(-c3ccc4c(N5CC6CCC(C5)N6)nc(OCC5(CN6CCN(CC7CCC8(CC7)CCN(C(=O)c7ccc(C)c(N9CCC(=O)NC9=O)c7)CC8)CC6)CC5)nc4c3F)c12 | 98.2
C#Cc1cccc2cc(O)cc(-c3ncc4c(N5CC6CCC(C5)N6)nc(OCC5(CN6CCN(CC7CCC8(CC7)CCN(C(=O)c7ccc(C)c(N9CCC(=O)NC9=O)c7)CC8)CC6)CC5)nc4c3F)c12 | 95.2
CCc1c(F)ccc2cc(O)cc(-c3ccc4c(N5CC6CCC(C5)N6)nc(OCC5(CN6CCN(CC7CCC8(CC7)CCN(C(=O)c7ccc(C)c(N9CCC(=O)NC9=O)c7)CC8)CC6)CC5)nc4c3F)c12 | 99.5
C#Cc1c(F)ccc2cc(O)cc(-c3ccc4c(N5CC6CCC(C5)N6)nc(OC[C@H](C)CN5CCN(CC6CCC7(CC6)CCN(C(=O)c6ccc(C)c(N8CCC(=O)NC8=O)c6)CC7)CC5)nc4c3F)c12 | 99.1
C#Cc1c(F)ccc2cc(O)cc(-c3ncc4c(N5CC6CCC(C5)N6)nc(OC[C@@H](C)CN5CCN(CC6CCC7(CC6)CCN(C(=O)c6ccc(OC)c(N8CCC(=O)NC8=O)c6)CC7)CC5)nc4c3F)c12 | 83.4
C#Cc1c(F)ccc2cc(O)cc(-c3ccc4c(N5CC6CCC(C5)N6)nc(OC[C@H](C)CN5CCN(CC6CCC7(CC6)CCN(C(=O)c6ccc(OC)c(N8CCC(=O)NC8=O)c6)CC7)CC5)nc4c3F)c12 | 99.7
C#Cc1c(F)ccc2cc(O)cc(-c3ncc4c(N5CC6CCC(C5)N6)nc(OCC(C)CN5CCN(CC6CCC7(CC6)CCN(C(=O)c6ccc(OC)c(N8CCC(=O)NC8=O)c6)CC7)CC5)nc4c3F)c12 (stereo not drawn) | 99.6
C#Cc1c(F)ccc2cc(O)cc(-c3ncc4c(N5CC6CCC(C5)N6)nc(OCC5(CN6CCN(CC7CCC8(CCN(C(=O)c9ccc(C)c(N%10CCC(=O)NC%10=O)c9)CC8)CO7)CC6)CC5)nc4c3F)c12 (stereo not drawn) | 99.5

Source of measurements: patent US20260166159A1
